Assay: Stability of the compound in human plasma after 4 hrs at 37 degC by mass spectrometric analysis
Type: ADME, cell-free
Details: read-out: Stability
measured quantity: remaining at 4 h

>>> test_result("Cc1ccc(NC(=O)c2cc(N3C(=O)c4ccc(C(=O)O)cc4C3=O)ccc2N2CCCCC2)cc1")
"2%"
>>> test_result("Cc1ccc(NC(=O)c2cc(-n3cc4ccc(C(=O)O)cc4n3)ccc2N2CCCCC2)cc1")
"96%"
>>> test_result("Cc1ccc(NC(=O)c2cc(-c3cc4cc(C(=O)O)ccc4o3)ccc2N2CCCCC2)cc1")
"93%"

###

Target: Lipoprotein lipase (Bos taurus)
Assay: Induction of bovine LPL stabilization using intralipid as substrate at 6.25 uM preincubated for 10 mins with human recombinant ANGPTL4 followed by substrate addition measured after 45 mins relative to control
Active and inactive are the calls of the source. The calls are words filed in the database; no cut-off is given here.
measured quantity: Activity

>>> test_result("Cc1ccc(NC(=O)c2cc(-n3cc4ccc(C(=O)O)cc4n3)ccc2N2CCCCC2)cc1")
"16%"
>>> test_result("Cc1ccc(NC(=O)c2cc(N3CCCCC3)cc(N3C(=O)c4ccc(C(=O)O)cc4C3=O)c2)cc1")
"inactive"
>>> test_result("CCc1cccc(NC(=O)c2cc(N3C(=O)c4ccc(C(=O)O)cc4C3=O)ccc2N2CCCCC2)c1")
"9.2%"
>>> test_result("Cc1ccc(NC(=O)c2cc(-n3cc4cc(C(=O)O)ccc4n3)ccc2N2CCCCC2)cc1")
"11.2%"
>>> test_result("CCc1ccc(NC(=O)c2cc(N3C(=O)c4ccc(C(=O)O)cc4C3=O)ccc2N2CCCCC2)cc1")
"32.4%"
>>> test_result("Cc1ccc(NC(=O)c2cc(N3C(=O)c4ccc(C(=O)O)cc4C3=O)ccc2Nc2ccccc2)cc1")
"57.2%"
>>> test_result("Cc1ccc(NC(=O)c2cc(-n3cc4ccccc4n3)ccc2N2CCCCC2)cc1")
"inactive"
>>> test_result("Cc1ccc(NC(=O)c2cc(N3C(=O)c4ccc(C(=O)O)cc4C3=O)ccc2Br)cc1")
"inactive"
>>> test_result("Cc1ccc(NC(=O)c2cc(N3C(=O)c4ccccc4C3=O)ccc2N2CCCCC2)cc1")
"inactive"
>>> test_result("CC(C)c1ccc(NC(=O)c2cc(N3C(=O)c4ccc(C(=O)O)cc4C3=O)ccc2N2CCCCC2)cc1")
"55.6%"
>>> test_result("O=C(O)c1ccc2c(c1)C(=O)N(c1ccc(N3CCCCC3)c(C(=O)Nc3ccccc3)c1)C2=O")
"inactive"
>>> test_result("COc1ccc(NC(=O)c2cc(N3C(=O)c4ccc(C(=O)O)cc4C3=O)ccc2N2CCCCC2)cc1")
"inactive"
>>> test_result("Cc1ccc(NC(=O)c2cc(N)ccc2N2CCCCC2)cc1")
"inactive"
>>> test_result("O=C(O)c1ccc2c(c1)C(=O)N(c1ccccc1)C2=O")
"inactive"
>>> test_result("Cc1ccc(NC(=O)c2cc(N3C(=O)c4ccc(C(=O)O)cc4C3=O)ccc2N2CCCCC2)cc1C(F)(F)F")
"19.4%"
>>> test_result("O=C(O)c1ccc2c(c1)C(=O)N(c1ccc(N3CCCCC3)c(C(=O)Nc3ccccc3-c3ccccc3)c1)C2=O")
"60.1%"
>>> test_result("CC(C)c1ccc(NC(=O)c2cc(N3C(=O)c4ccc(C(=O)O)cc4C3=O)ccc2Nc2ccccc2)cc1")
"44.1%"
>>> test_result("COc1ccc(N2C(=O)c3ccc(C(=O)O)cc3C2=O)cc1C(=O)Nc1ccc(C)cc1")
"inactive"
>>> test_result("O=C(O)c1ccc2c(c1)C(=O)N(c1ccc(NCc3cccnc3)c(C(=O)NCc3cccnc3)c1)C2=O")
"inactive"
>>> test_result("Cc1ccc(NC(=O)c2cc(-c3cc4cc(C(=O)O)ccc4[nH]3)ccc2N2CCCCC2)cc1")
"101%"
>>> test_result("CCCCCCNc1ccc(N2C(=O)c3ccc(C(=O)O)cc3C2=O)cc1C(=O)Nc1ccc(C)cc1")
"60.6%"
>>> test_result("Cc1ccc(NC(=O)c2cc(-c3cc4cc(C(=O)O)ccc4o3)ccc2N2CCCCC2)cc1")
"49.8%"
>>> test_result("Cc1ccc(NC(=O)c2cc(N3C(=O)c4ccc(C(N)=O)cc4C3=O)ccc2N2CCCCC2)cc1")
"inactive"
>>> test_result("Cc1ccc(NC(=O)c2cc(N3C(=O)c4ccc(C(=O)O)cc4C3=O)ccc2N2CCN(C)CC2)cc1")
"inactive"
>>> test_result("Cc1ccc(NC(=O)c2cc(N3C(=O)c4ccc(C(=O)O)cc4C3=O)ccc2N2CCCCC2)cc1F")
"inactive"
>>> test_result("CCCCCCNC(=O)c1cc(N2C(=O)c3ccc(C(=O)O)cc3C2=O)ccc1NCCCCCC")
"19.3%"
>>> test_result("O=C(O)c1ccc2c(c1)C(=O)N(c1ccc(N3CCCCC3)c(C(=O)NCc3ccccc3)c1)C2=O")
"inactive"
>>> test_result("CCCCCCCCCCNc1ccc(N2C(=O)c3ccc(C(=O)O)cc3C2=O)cc1C(=O)Nc1ccc(C)cc1")
"5.9%"
>>> test_result("Cc1ccc(NC(=O)c2ccc(N3CCCCC3)c(N3C(=O)c4ccc(C(=O)O)cc4C3=O)c2)cc1")
"inactive"
>>> test_result("Cc1ccc(NC(=O)c2cc(N3C(=O)c4ccc(Br)cc4C3=O)ccc2N2CCCCC2)cc1")
"inactive"
>>> test_result("Cc1ccc(NC(=O)c2cc(Nc3ccccc3)cc(N3C(=O)c4ccc(C(=O)O)cc4C3=O)c2)cc1")
"4.2%"
>>> test_result("Cc1ccc(NC(=O)c2cccc(N3CCCCC3)c2N2C(=O)c3ccc(C(=O)O)cc3C2=O)cc1")
"inactive"
>>> test_result("Cc1ccc(NC(=O)c2cc(N3C(=O)c4ccc(C(=O)O)cc4C3=O)ccc2N2CCOCC2)cc1")
"inactive"
>>> test_result("Cc1ccc(NC(=O)c2cc(Nc3ccc(C)cc3)cc(N3C(=O)c4ccc(C(=O)O)cc4C3=O)c2)cc1")
"5%"
>>> test_result("CCCNc1ccc(N2C(=O)c3ccc(C(=O)O)cc3C2=O)cc1C(=O)Nc1ccc(C)cc1")
"inactive"
>>> test_result("COC(=O)c1ccc2c(c1)C(=O)N(c1ccc(N3CCCCC3)c(C(=O)Nc3ccc(C)cc3)c1)C2=O")
"inactive"

###

Biological target: Lipoprotein lipase (Bos taurus) (UniProt P11151)
Sequence (P11151 whole entry): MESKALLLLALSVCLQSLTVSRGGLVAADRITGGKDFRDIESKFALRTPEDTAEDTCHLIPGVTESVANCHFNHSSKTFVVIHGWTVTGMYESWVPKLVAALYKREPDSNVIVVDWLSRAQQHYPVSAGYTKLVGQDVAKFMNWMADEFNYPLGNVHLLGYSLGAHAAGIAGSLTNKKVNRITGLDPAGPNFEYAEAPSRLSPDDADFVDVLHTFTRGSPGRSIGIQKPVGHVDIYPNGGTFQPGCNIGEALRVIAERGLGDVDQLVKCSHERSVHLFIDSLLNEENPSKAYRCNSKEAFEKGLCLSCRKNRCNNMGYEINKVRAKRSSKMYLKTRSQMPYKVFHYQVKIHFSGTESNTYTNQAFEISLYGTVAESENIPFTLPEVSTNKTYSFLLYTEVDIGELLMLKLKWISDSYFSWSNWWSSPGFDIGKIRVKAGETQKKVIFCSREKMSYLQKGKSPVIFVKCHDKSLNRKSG
Assay: Induction of bovine LPL stabilization using intralipid as substrate at 12.5 uM preincubated for 10 mins with human recombinant ANGPTL4 followed by substrate addition measured after 45 mins relative to control
Calls of active or inactive are those of the source. The calls are words filed in the database; no cut-off is given here.
measured quantity: Activity

>>> test_result("COCCNc1ccc(N2C(=O)c3ccc(C(=O)O)cc3C2=O)cc1C(=O)Nc1ccc(C)cc1")
"inactive"
>>> test_result("CCCCCCNC(=O)c1cc(N2C(=O)c3ccc(C(=O)O)cc3C2=O)ccc1NCCCCCC")
"31.8%"
>>> test_result("Cc1ccc(NC(=O)c2cccc(N3CCCCC3)c2N2C(=O)c3ccc(C(=O)O)cc3C2=O)cc1")
"inactive"
>>> test_result("Cc1ccc(NC(=O)c2cc(N3C(=O)c4ccc(C(=O)O)cc4C3=O)ccc2N2CCCCC2)cc1F")
"53.3%"
>>> test_result("Cc1ccc(NC(=O)c2cc(N3C(=O)c4ccc(C(=O)O)cc4C3=O)ccc2N2CCCCC2)cc1Cl")
"73%"

###

Test: Half life in human hepatocytes at 1 uM
Assay type: ADME, cell-based, Hepatocyte
measured quantity: half-life at 1 µM (min)

>>> test_result("Cc1ccc(NC(=O)c2cc(-c3cc4cc(C(=O)O)ccc4o3)ccc2N2CCCCC2)cc1")
40

###

Below, each entry is listed alongside its reported Activity.
Biological target: Lipoprotein lipase (Bos taurus) (UniProt P11151)
Assay: Induction of bovine LPL stabilization using intralipid as substrate at 12.5 uM preincubated for 10 mins with human recombinant ANGPTL4 followed by substrate addition measured after 45 mins relative to control
measured quantity: Activity

>>> test_result("O=C(O)c1ccc2c(c1)C(=O)N(c1ccc(N3CCCCC3)c(C(=O)Nc3ccccc3-c3ccccc3)c1)C2=O")
"63.3%"
>>> test_result("Cc1ccc(NC(=O)c2ccc(N3CCCCC3)c(N3C(=O)c4ccc(C(=O)O)cc4C3=O)c2)cc1")
"81.3%"
>>> test_result("CCc1cccc(NC(=O)c2cc(N3C(=O)c4ccc(C(=O)O)cc4C3=O)ccc2Nc2ccccc2)c1")
"63.9%"

###

Below, each entry is listed alongside its reported solubility kinetic at 2 h.
Assay: Kinetic aqueous solubility of the compound in PBS at pH 7.4 after 2 hrs by LC-MS/MS analysis
Type: physicochemical
Details: read-out: Kinetic_solubility
measured quantity: solubility kinetic at 2 h

>>> test_result("Cc1ccc(NC(=O)c2cc(N3C(=O)c4ccc(C(=O)O)cc4C3=O)ccc2N2CCCCC2)cc1")
"80 µM"
>>> test_result("Cc1ccc(NC(=O)c2cc(-c3cc4cc(C(=O)O)ccc4o3)ccc2N2CCCCC2)cc1")
"< 2 µM"
>>> test_result("Cc1ccc(NC(=O)c2cc(-n3cc4ccc(C(=O)O)cc4n3)ccc2N2CCCCC2)cc1")
"< 2 µM"
